Each record here notes measured cytotoxicity at 10 µM.
# protocolText: Toxicity liver stage against HepG2, at 10uM
# Format: cell-based
# Design: test concentration 10 uM, cell line HepG2-A16-CD81EGFP
# experimentalConditions: human, HepG2-A16-CD81EGFP cells; read-out: INHIBITION
API: value field is a number in %; no unit string.

Completed entries (count: 4):
molecule	cytotoxicity at 10 µM / %
O=C(CCOc1ccccc1F)N1CCCC1Cn1cccn1 (stereo not given)	-3.71
CCN(Cc1cnn(C)c1)S(=O)(=O)c1ccc(NC(C)=O)cc1	3.59
COc1ccc(NC2CCCN(Cc3cnc(N(C)C)s3)C2)cc1OC (stereo not given)	3.46
CCOC(=O)c1ccc(S(=O)(=O)NCC(CC)N2CCCC2)cc1 (stereo not given)	-7.4

Check the records and state cytotoxicity at 10 µM for `Cc1noc(C2CCN(C(=O)c3ccc(N(C)C)nc3)CC2)n1`
-5.95
